# Tested on: 233499-124-R-J3-PDC spheroids with HUVEC/MSC, viability
# assay notes: Anticancer human tumor 233499-124-R-J3-PDC patient-derived colon adenocarcinoma cell line growth inhibition [PI3K]; active = viability on the fitted dose curve at most 10% of control; inactive = the rest
# particulars: second compound 10 µM; first compound 10 µM
Outcome codes: True (active), False (inactive)

{"compound": "C=CC(=O)N1CCN(c2nc(=O)n(-c3c(C)ccnc3C(C)C)c3nc(-c4c(O)cccc4F)c(F)cc23)C(C)C1 (stereo unspecified) + Cc1nc(NC(=O)N2CCCC2C(N)=O)sc1-c1ccnc(C(C)(C)C(F)(F)F)c1", "classification": "False"}
{"compound": "C[C@@H](NC(=O)c1ncnc(N)c1Cl)c1ncc(C(=O)Nc2cc(C(F)(F)F)c(Cl)cn2)s1 + Cc1nc(NC(=O)N2CCCC2C(N)=O)sc1-c1ccnc(C(C)(C)C(F)(F)F)c1", "classification": "False"}
{"compound": "Cn1nccc1Nc1nccc(-c2ccn(C(CO)c3ccc(Cl)c(F)c3)c(=O)c2)n1 (stereo unspecified) + CC(Nc1ncnc2nc[nH]c12)c1cc2cccc(Cl)c2c(=O)n1-c1ccccc1", "classification": "False"}
{"compound": "CC1(C)CCC(Nc2ncc(C(F)(F)F)c(-c3c[nH]c4c(P(C)(C)=O)c(C#N)ccc34)n2)CN1 (stereo unspecified) + CC(Nc1ncnc2nc[nH]c12)c1cc2cccc(Cl)c2c(=O)n1-c1ccccc1", "classification": "True"}
{"compound": "CCCS(=O)(=O)Nc1ccc(F)c(C(=O)c2c[nH]c3ncc(-c4ccc(Cl)cc4)cc23)c1F + Cc1nc(NC(=O)N2CCCC2C(N)=O)sc1-c1ccnc(C(C)(C)C(F)(F)F)c1", "classification": "True"}
{"compound": "CC1(C)CCC(Nc2ncc(C(F)(F)F)c(-c3c[nH]c4c(P(C)(C)=O)c(C#N)ccc34)n2)CN1 (stereo unspecified) + Cc1nc(NC(=O)N2CCCC2C(N)=O)sc1-c1ccnc(C(C)(C)C(F)(F)F)c1", "classification": "True"}

----------
# Test system: 233499-124-R-J3-PDC spheroids with HUVEC/MSC, viability
# assay notes: Anticancer human tumor 233499-124-R-J3-PDC cell line growth inhibition [PI3K]
# particulars: second compound 0.1 µM; first compound 0.1 µM; stronger effect = lower value
observation type: viability, T/C

{"compound": "CC(C)n1nc(-c2ccc3oc(N)nc3c2)c2c(N)ncnc21 + CC(Nc1ccc2c(c1)OCCn1cc(N3C(=O)OCC3C(F)F)nc1-2)C(N)=O", "endpoint result": "29.1%"}
{"compound": "CC1(C)CCC(CN2CCN(c3ccc(C(=O)NS(=O)(=O)c4ccc(NCC5CCOCC5)c([N+](=O)[O-])c4)c(Oc4cnc5[nH]ccc5c4)c3)CC2)=C(c2ccc(Cl)cc2)C1 + CC(Nc1ncnc2nc[nH]c12)c1cc2cccc(Cl)c2c(=O)n1-c1ccccc1", "endpoint result": "98.7%"}
{"compound": "CC(=O)c1c(C)c2cnc(Nc3ccc(N4CCNCC4)cn3)nc2n(C2CCCC2)c1=O + COc1c(OCCCN2CCOCC2)ccc2c3n(c(=NC(=O)c4cnc(N)nc4)nc12)CCN3", "endpoint result": "62.4%"}
{"compound": "CC1(C)CCC(CN2CCN(c3ccc(C(=O)NS(=O)(=O)c4ccc(NCC5CCOCC5)c([N+](=O)[O-])c4)c(Oc4cnc5[nH]ccc5c4)c3)CC2)=C(c2ccc(Cl)cc2)C1 + Cc1nc(NC(=O)N2CCCC2C(N)=O)sc1-c1ccnc(C(C)(C)C(F)(F)F)c1", "endpoint result": "98.1%"}
{"compound": "CCCS(=O)(=O)Nc1ccc(F)c(C(=O)c2c[nH]c3ncc(-c4ccc(Cl)cc4)cc23)c1F + COc1c(OCCCN2CCOCC2)ccc2c3n(c(=NC(=O)c4cnc(N)nc4)nc12)CCN3", "endpoint result": "56%"}

----------
# Test system: 233499-124-R-J3-PDC spheroids with HUVEC/MSC, viability
# assay notes: Anticancer human tumor 233499-124-R-J3-PDC cell line growth inhibition [PI3K];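 also: spheroids exposed to agents for seven days before readout; percent viability relative to DMSO vehicle control taken as 100%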
# particulars: second compound 0.0316 µM; first compound 3.16 µM; stronger effect = lower value
Label class 1 when viability, T/C is strictly below 90%; at or above that, label class 0.

{"compound": "CC(C)NCC(C(=O)N1CCN(c2ncnc3c2C(C)CC3O)CC1)c1ccc(Cl)cc1 (stereo not given) + COc1c(OCCCN2CCOCC2)ccc2c3n(c(=NC(=O)c4cnc(N)nc4)nc12)CCN3", "classification": "class 1"}
{"compound": "CCCS(=O)(=O)Nc1ccc(F)c(C(=O)c2c[nH]c3ncc(-c4ccc(Cl)cc4)cc23)c1F + CC(Nc1ncnc2nc[nH]c12)c1cc2cccc(Cl)c2c(=O)n1-c1ccccc1", "classification": "class 1"}
{"compound": "CC1(C)CCC(CN2CCN(c3ccc(C(=O)NS(=O)(=O)c4ccc(NCC5CCOCC5)c([N+](=O)[O-])c4)c(Oc4cnc5[nH]ccc5c4)c3)CC2)=C(c2ccc(Cl)cc2)C1 + Cc1nc(NC(=O)N2CCCC2C(N)=O)sc1-c1ccnc(C(C)(C)C(F)(F)F)c1", "classification": "class 0"}
{"compound": "C=CC(=O)N1CCN(c2nc(=O)n(-c3c(C)ccnc3C(C)C)c3nc(-c4c(O)cccc4F)c(F)cc23)C(C)C1 (stereo not given) + CC(Nc1ncnc2nc[nH]c12)c1cc2cccc(Cl)c2c(=O)n1-c1ccccc1", "classification": "class 1"}
{"compound": "Cn1ncc(Cl)c1-c1cc(C(=O)NC(CN)Cc2cccc(F)c2)sc1Cl (stereo not given) + CC(Nc1ncnc2nc[nH]c12)c1cc2cccc(Cl)c2c(=O)n1-c1ccccc1", "classification": "class 1"}

----------
# Test system: 233499-124-R-J3-PDC spheroids with HUVEC/MSC, viability
# assay notes: Anticancer human tumor 233499-124-R-J3-PDC cell line growth inhibition [PI3K];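 also: spheroids exposed to agents for seven days before readout; percent viability relative to DMSO vehicle control taken as 100%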
# particulars: second compound 0.1 µM; first compound 0.1 µM; stronger effect = lower value
Measured viability, T/C accompanies every entry in the list below.
observation type: viability, T/C

{"molecule": "CC1(C)CCC(CN2CCN(c3ccc(C(=O)NS(=O)(=O)c4ccc(NCC5CCOCC5)c([N+](=O)[O-])c4)c(Oc4cnc5[nH]ccc5c4)c3)CC2)=C(c2ccc(Cl)cc2)C1 + COc1c(OCCCN2CCOCC2)ccc2c3n(c(=NC(=O)c4cnc(N)nc4)nc12)CCN3", "endpoint result": "73.3%"}
{"molecule": "CC(C)NCC(C(=O)N1CCN(c2ncnc3c2C(C)CC3O)CC1)c1ccc(Cl)cc1 (stereo not drawn) + CC(Nc1ccc2c(c1)OCCn1cc(N3C(=O)OCC3C(F)F)nc1-2)C(N)=O", "endpoint result": "86.2%"}
{"molecule": "CC(C)NCC(C(=O)N1CCN(c2ncnc3c2C(C)CC3O)CC1)c1ccc(Cl)cc1 (stereo not drawn) + CC(Nc1ncnc2nc[nH]c12)c1cc2cccc(Cl)c2c(=O)n1-c1ccccc1", "endpoint result": "96.7%"}

----------
# Tested on: 233499-124-R-J3-PDC spheroids with HUVEC/MSC, viability
# assay notes: Anticancer human tumor 233499-124-R-J3-PDC cell line growth inhibition [PI3K];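 also: spheroids exposed to agents for seven days before readout; percent viability relative to DMSO vehicle control taken as 100%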
# particulars: compound 10 µM; stronger effect = lower value

{"compound": "Cn1ncc(Cl)c1-c1cc(C(=O)NC(CN)Cc2cccc(F)c2)sc1Cl (centres undefined)", "viability, T/C": "32.4% [middle of 4 runs]"}
{"compound": "CC1(C)CCC(Nc2ncc(C(F)(F)F)c(-c3c[nH]c4c(P(C)(C)=O)c(C#N)ccc34)n2)CN1 (centres undefined)", "viability, T/C": "5.67% [middle of 4 runs]"}
{"compound": "C[C@@H](NC(=O)c1ncnc(N)c1Cl)c1ncc(C(=O)Nc2cc(C(F)(F)F)c(Cl)cn2)s1", "viability, T/C": "110% [middle of 4 runs]"}
{"compound": "C#Cc1c(F)ccc2cc(O)cc(-c3ncc4c(N5CC6CCC(C5)N6)nc(OCC56CCCN5CC(F)C6)nc4c3F)c12 (centres undefined)", "viability, T/C": "84.1% [middle of 4 runs]"}

----------
# Test system: 233499-124-R-J3-PDC spheroids with HUVEC/MSC, viability
# assay notes: Anticancer human tumor 233499-124-R-J3-PDC cell line growth inhibition [PI3K];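 also: spheroids exposed to agents for seven days before readout; percent viability relative to DMSO vehicle control taken as 100%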
# particulars: second compound 0.01 µM; first compound 3.16 µM; stronger effect = lower value
// classify: if (viability, T/C < 90%) Y else N

{"molecule": "CC(Cn1ccc(-c2ccc(C#N)c(Cl)c2)n1)NC(=O)c1cc(C(C)O)[nH]n1 (stereo unspecified) + COc1c(OCCCN2CCOCC2)ccc2c3n(c(=NC(=O)c4cnc(N)nc4)nc12)CCN3", "classification": "N"}
{"molecule": "Cn1nccc1Nc1nccc(-c2ccn(C(CO)c3ccc(Cl)c(F)c3)c(=O)c2)n1 (stereo unspecified) + COc1c(OCCCN2CCOCC2)ccc2c3n(c(=NC(=O)c4cnc(N)nc4)nc12)CCN3", "classification": "Y"}
{"molecule": "CC(Cn1ccc(-c2ccc(C#N)c(Cl)c2)n1)NC(=O)c1cc(C(C)O)[nH]n1 (stereo unspecified) + CC(Nc1ccc2c(c1)OCCn1cc(N3C(=O)OCC3C(F)F)nc1-2)C(N)=O", "classification": "Y"}
{"molecule": "CC1(C)CCC(CN2CCN(c3ccc(C(=O)NS(=O)(=O)c4ccc(NCC5CCOCC5)c([N+](=O)[O-])c4)c(Oc4cnc5[nH]ccc5c4)c3)CC2)=C(c2ccc(Cl)cc2)C1 + CC(Nc1ccc2c(c1)OCCn1cc(N3C(=O)OCC3C(F)F)nc1-2)C(N)=O", "classification": "Y"}
{"molecule": "Cn1nccc1Nc1nccc(-c2ccn(C(CO)c3ccc(Cl)c(F)c3)c(=O)c2)n1 (stereo unspecified) + CC(Nc1ccc2c(c1)OCCn1cc(N3C(=O)OCC3C(F)F)nc1-2)C(N)=O", "classification": "Y"}
{"molecule": "C[C@@H](NC(=O)c1ncnc(N)c1Cl)c1ncc(C(=O)Nc2cc(C(F)(F)F)c(Cl)cn2)s1 + CC(Nc1ccc2c(c1)OCCn1cc(N3C(=O)OCC3C(F)F)nc1-2)C(N)=O", "classification": "N"}
{"molecule": "C[C@@H](NC(=O)c1ncnc(N)c1Cl)c1ncc(C(=O)Nc2cc(C(F)(F)F)c(Cl)cn2)s1 + COc1c(OCCCN2CCOCC2)ccc2c3n(c(=NC(=O)c4cnc(N)nc4)nc12)CCN3", "classification": "N"}
{"molecule": "CC(C)NCC(C(=O)N1CCN(c2ncnc3c2C(C)CC3O)CC1)c1ccc(Cl)cc1 (stereo unspecified) + CC(Nc1ccc2c(c1)OCCn1cc(N3C(=O)OCC3C(F)F)nc1-2)C(N)=O", "classification": "Y"}
{"molecule": "CNC(=O)c1ccc(N2C(=S)N(c3ccc(C#N)c(C(F)(F)F)c3)C(=O)C2(C)C)cc1F + CC(Nc1ccc2c(c1)OCCn1cc(N3C(=O)OCC3C(F)F)nc1-2)C(N)=O", "classification": "Y"}

Reference for the values: PubChem BioAssay AID1963984
